Record form. Attribute: inhibition at 1 µM. Fill in for each entry.
target: JAK3 (Homo sapiens); construct: purchased Invitrogen; test: JAK3 enzyme inhibition test (LANCE method); format: biochemical; conditions: 1 μM test compound; read-out: JAK3 enzyme inhibitory activity (%, 1 μM)
State the answer as a number, implicitly in %.

[Q] Look up inhibition at 1 µM: CC(C)C(C(F)F)n1cc(-c2cc(N3CCOCC3)n(C)n2)c2[nH]nc(N)c2c1=O (stereo not shown)
[A] 98

[Q] Look up inhibition at 1 µM: `Cn1nc(-c2cn(C(C3CC3)C3CC3)c(=O)c3c(N)n[nH]c23)cc1C(F)(F)F`
[A] 100

[Q] Look up inhibition at 1 µM: CC(C)C(C#N)n1cc(-c2cc(N3CCOCC3)n(C)n2)c2[nH]nc(N)c2c1=O (stereo not shown) [Example 113]
[A] 99

[Q] Look up inhibition at 1 µM: `CC(C)[C@H](C)n1cc(-c2cc(N3CCOC3=O)n(C)n2)c2[nH]nc(N)c2c1=O`
[A] 99

----------
target: JAK2 (Homo sapiens); construct: purchased Invitrogen; assay: JAK2 enzyme inhibition test (LANCE method); format: biochemical; details: 1 μM test compound; 1 µM
Sequence (O60674 whole entry): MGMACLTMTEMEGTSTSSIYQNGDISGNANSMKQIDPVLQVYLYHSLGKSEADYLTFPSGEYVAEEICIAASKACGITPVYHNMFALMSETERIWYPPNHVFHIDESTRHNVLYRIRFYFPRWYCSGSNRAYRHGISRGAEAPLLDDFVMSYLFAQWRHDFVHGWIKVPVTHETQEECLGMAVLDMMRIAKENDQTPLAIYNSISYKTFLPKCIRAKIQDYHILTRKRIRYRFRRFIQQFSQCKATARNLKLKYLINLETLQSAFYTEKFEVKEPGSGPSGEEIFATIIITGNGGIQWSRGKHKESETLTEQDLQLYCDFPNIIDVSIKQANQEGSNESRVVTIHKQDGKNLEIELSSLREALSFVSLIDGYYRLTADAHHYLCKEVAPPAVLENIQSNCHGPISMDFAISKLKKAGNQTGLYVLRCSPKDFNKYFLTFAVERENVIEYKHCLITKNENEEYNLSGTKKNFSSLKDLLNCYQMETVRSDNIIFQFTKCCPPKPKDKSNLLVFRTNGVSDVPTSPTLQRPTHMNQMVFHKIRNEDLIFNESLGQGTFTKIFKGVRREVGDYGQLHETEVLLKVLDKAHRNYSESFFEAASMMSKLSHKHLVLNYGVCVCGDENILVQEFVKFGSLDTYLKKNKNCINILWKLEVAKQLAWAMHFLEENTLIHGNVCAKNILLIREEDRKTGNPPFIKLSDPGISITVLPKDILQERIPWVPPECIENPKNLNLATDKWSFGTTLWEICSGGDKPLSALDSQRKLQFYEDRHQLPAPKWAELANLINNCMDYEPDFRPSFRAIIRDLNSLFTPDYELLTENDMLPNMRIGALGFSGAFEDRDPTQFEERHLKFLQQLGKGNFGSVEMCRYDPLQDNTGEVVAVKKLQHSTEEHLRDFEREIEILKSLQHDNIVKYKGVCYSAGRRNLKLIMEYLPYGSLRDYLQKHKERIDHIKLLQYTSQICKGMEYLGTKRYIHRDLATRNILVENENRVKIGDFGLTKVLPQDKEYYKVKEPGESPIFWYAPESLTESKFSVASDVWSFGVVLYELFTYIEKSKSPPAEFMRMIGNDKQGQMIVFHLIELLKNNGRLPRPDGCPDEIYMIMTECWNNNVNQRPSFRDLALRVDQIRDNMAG
property measured: JAK2 enzyme inhibitory activity (%, 1 μM) (%)
State the answer as a number, implicitly in %.

[Q] Look up JAK2 enzyme inhibitory activity (%, 1 μM): CC1CCCCC1n1cc(-c2cc(N3CCOCC3)n(C)n2)c2[nH]nc(N)c2c1=O (centres unmarked) [Example 154]
[A] 98

[Q] Look up JAK2 enzyme inhibitory activity (%, 1 μM): CC1CCCCC1n1cc(-c2cc(N3CCOCC3)n(C)n2)c2[nH]nc(N)c2c1=O (centres unmarked) [Example 153]
[A] 98

[Q] Look up JAK2 enzyme inhibitory activity (%, 1 μM): COC1(c2cc(-c3cn(C(C#N)C(C)C)c(=O)c4c(N)n[nH]c34)nn2C)CCC(F)(F)CC1 (centres unmarked) [Example 139]
[A] 80

[Q] Look up JAK2 enzyme inhibitory activity (%, 1 μM): CC(C)[C@H](C)n1cc(-c2cc(N3CCCC3CN(C)C)n(C)n2)c2[nH]nc(N)c2c1=O (some centres unmarked)
[A] 96

[Q] Look up JAK2 enzyme inhibitory activity (%, 1 μM): CC1CCCCC1n1cc(-c2cc(C(C)(C)O)n(C)n2)c2[nH]nc(N)c2c1=O (centres unmarked) [Example 119]
[A] 98

[Q] Look up JAK2 enzyme inhibitory activity (%, 1 μM): CC(C)[C@H](C)n1cc(-c2cc(N3CCC(C)(O)C3)n(C)n2)c2[nH]nc(N)c2c1=O (some centres unmarked) [Example 64]
[A] 99

[Q] Look up JAK2 enzyme inhibitory activity (%, 1 μM): Cn1nc(-c2cn(C3CCCC3(C)C)c(=O)c3c(N)n[nH]c23)cc1CN1CCS(=O)(=O)CC1 (centres unmarked)
[A] 87

[Q] Look up JAK2 enzyme inhibitory activity (%, 1 μM): CC(C)C(C#N)n1cc(-c2cc(N3CCOCC3)n(C)n2)c2[nH]nc(N)c2c1=O (centres unmarked) [Example 114]
[A] 74

----------
target: TYK2 (Homo sapiens, UniProt P29597); construct: purchased Invitrogen; assay: TYK2 enzyme inhibition test (LANCE method); format: biochemical; conditions: 1 μM test compound; read-out: TYK2 enzyme inhibitory activity (%, 1 μM)
Sequence (P29597 whole entry): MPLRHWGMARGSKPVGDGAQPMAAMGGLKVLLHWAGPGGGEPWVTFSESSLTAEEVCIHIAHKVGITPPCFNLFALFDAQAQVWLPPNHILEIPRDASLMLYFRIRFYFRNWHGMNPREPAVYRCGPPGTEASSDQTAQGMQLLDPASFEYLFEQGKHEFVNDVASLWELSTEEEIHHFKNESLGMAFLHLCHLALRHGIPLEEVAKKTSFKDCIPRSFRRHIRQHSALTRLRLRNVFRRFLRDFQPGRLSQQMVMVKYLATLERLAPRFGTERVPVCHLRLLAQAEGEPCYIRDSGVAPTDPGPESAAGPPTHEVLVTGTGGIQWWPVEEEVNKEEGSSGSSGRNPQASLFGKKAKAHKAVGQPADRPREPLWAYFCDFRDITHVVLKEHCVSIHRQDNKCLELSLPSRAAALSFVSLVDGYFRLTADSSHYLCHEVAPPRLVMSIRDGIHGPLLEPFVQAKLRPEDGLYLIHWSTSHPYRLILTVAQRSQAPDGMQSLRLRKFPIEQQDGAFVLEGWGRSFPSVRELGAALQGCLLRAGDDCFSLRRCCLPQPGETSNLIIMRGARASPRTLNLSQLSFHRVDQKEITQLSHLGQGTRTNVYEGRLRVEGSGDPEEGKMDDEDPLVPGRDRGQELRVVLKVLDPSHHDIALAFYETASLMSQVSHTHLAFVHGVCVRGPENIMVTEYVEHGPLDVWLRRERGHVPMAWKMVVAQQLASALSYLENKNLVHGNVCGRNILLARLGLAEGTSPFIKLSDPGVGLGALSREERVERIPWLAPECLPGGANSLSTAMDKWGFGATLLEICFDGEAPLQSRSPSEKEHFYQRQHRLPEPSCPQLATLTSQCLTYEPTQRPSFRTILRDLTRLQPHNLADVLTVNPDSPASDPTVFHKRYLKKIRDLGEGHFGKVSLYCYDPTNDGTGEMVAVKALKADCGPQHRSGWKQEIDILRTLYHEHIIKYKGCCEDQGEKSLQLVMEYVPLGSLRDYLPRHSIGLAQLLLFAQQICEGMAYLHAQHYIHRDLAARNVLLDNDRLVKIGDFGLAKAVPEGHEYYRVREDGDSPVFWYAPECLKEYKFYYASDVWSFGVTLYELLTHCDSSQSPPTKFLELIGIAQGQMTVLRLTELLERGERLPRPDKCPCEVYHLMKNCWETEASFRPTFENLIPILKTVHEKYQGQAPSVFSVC
property measured: inhibition at 1 µM (%)
State the answer as a number, implicitly in %.

[Q] Look up inhibition at 1 µM: Cn1nc(-c2cn(C3CCCC3(C)C)c(=O)c3c(N)n[nH]c23)cc1CN1CCS(=O)(=O)CC1 (stereo not drawn) [Example 74]
[A] 99

[Q] Look up inhibition at 1 µM: Cn1nc(-c2cn(-c3c(F)cccc3C#N)c(=O)c3c(N)n[nH]c23)cc1C1CCOCC1 [Example 69]
[A] 99

[Q] Look up inhibition at 1 µM: CC(C)[C@H](C)n1cc(-c2cc(N3CCC(C)(O)CC3)n(C)n2)c2[nH]nc(N)c2c1=O [Example 18]
[A] 99

[Q] Look up inhibition at 1 µM: CO[C@H]1CCN(c2cc(-c3cn(C(C4CC4)C4CC4)c(=O)c4c(N)n[nH]c34)nn2C)C1 [Example 167]
[A] 101

[Q] Look up inhibition at 1 µM: COC1(c2cc(-c3cn([C@@H](C)C(C)C)c(=O)c4c(N)n[nH]c34)nn2C)CN(C(=O)C(C)C)C1 [Example 111]
[A] 100

[Q] Look up inhibition at 1 µM: CC(=O)N(C)C[C@H]1CCCN1c1cc(-c2cn(C(C3CC3)C3CC3)c(=O)c3c(N)n[nH]c23)nn1C [Example 175]
[A] 98

[Q] Look up inhibition at 1 µM: CC(C)[C@H](C)n1cc(-c2cc(N3CCCC3CN(C)C)n(C)n2)c2[nH]nc(N)c2c1=O (stereo partly drawn) [Example 103]
[A] 96

[Q] Look up inhibition at 1 µM: Cn1nc(-c2cn(C(C3CC3)C3CC3)c(=O)c3c(N)n[nH]c23)cc1C(C)(C)O [Example 174]
[A] 98

[Q] Look up inhibition at 1 µM: Cn1nc(-c2cn(C(C3CC3)C3CC3)c(=O)c3c(N)n[nH]c23)cc1N1CCS(=O)(=O)C(C)(C)C1 [Example 88]
[A] 99

[Q] Look up inhibition at 1 µM: CC(C)[C@H](C)n1cc(-c2cc(N3CCOCC3=O)n(C)n2)c2[nH]nc(N)c2c1=O [Example 49]
[A] 99

[Q] Look up inhibition at 1 µM: Cn1nc(-c2cn(-c3c(F)cccc3F)c(=O)c3c(N)n[nH]c23)cc1N1CCOCC1 [Example 143]
[A] 100

[Q] Look up inhibition at 1 µM: COC1(c2cc(-c3cn(C(C#N)C(C)C)c(=O)c4c(N)n[nH]c34)nn2C)CCC(F)(F)CC1 (stereo not drawn) [Example 137]
[A] 99

[Q] Look up inhibition at 1 µM: CN1CCCN(c2cc(-c3cn(C(C4CC4)C4CC4)c(=O)c4c(N)n[nH]c34)nn2C)CC1 [Example 150]
[A] 102

[Q] Look up inhibition at 1 µM: CC(C)[C@H](C)n1cc(-c2cc(CN3CCCC3=O)n(C)n2)c2[nH]nc(N)c2c1=O [Example 52]
[A] 100

[Q] Look up inhibition at 1 µM: CC(C)C(n1cc(-c2cc(N3CCOCC3)n(C)n2)c2[nH]nc(N)c2c1=O)C(F)(F)F (stereo not drawn) [Example 82]
[A] 99

----------
Target: JAK3 (Homo sapiens)
Construct: purchased Invitrogen
Sequence (P52333 1-1124): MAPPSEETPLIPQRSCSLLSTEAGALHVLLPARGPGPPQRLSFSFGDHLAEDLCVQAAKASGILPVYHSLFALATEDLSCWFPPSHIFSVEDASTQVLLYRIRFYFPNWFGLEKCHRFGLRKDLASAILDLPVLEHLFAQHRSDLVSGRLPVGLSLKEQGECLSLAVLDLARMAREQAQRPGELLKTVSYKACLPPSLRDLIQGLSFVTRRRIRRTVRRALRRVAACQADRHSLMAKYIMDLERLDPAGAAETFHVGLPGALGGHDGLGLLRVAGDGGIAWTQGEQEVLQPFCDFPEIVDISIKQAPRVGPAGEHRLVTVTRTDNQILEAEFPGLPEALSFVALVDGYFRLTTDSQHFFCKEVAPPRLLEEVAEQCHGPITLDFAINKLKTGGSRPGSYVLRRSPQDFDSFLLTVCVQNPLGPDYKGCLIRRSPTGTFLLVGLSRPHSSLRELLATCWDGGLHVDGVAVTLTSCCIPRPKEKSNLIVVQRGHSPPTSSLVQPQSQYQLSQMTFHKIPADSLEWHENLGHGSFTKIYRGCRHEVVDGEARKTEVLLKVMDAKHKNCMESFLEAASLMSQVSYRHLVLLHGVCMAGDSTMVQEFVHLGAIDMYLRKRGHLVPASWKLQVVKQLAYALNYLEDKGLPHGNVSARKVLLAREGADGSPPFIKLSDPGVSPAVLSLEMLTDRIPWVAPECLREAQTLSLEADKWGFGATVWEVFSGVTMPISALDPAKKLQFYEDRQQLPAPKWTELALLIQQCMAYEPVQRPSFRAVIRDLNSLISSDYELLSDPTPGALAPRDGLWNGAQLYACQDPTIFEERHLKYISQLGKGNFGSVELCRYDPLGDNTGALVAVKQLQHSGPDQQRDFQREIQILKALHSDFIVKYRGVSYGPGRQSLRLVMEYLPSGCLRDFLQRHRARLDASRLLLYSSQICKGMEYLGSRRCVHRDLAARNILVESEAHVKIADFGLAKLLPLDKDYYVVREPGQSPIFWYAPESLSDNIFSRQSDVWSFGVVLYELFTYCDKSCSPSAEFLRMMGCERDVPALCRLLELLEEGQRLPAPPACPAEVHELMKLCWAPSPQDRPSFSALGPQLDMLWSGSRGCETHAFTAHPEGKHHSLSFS
Test: JAK3 enzyme inhibition test (LANCE method)
Format: biochemical
Settings: 1 μM test compound; read-out: JAK3 enzyme inhibitory activity (%, 1 μM)
Record form. Attribute: inhibition at 1 µM. Fill in for each entry.
State the answer as a number, implicitly in %.

[Q] Recall the recorded inhibition at 1 µM for `Cn1nc(-c2cn(-c3c(F)cccc3C#N)c(=O)c3c(N)n[nH]c23)cc1C1CCOCC1` with JAK3 (Homo sapiens) and state it.
[A] 98

[Q] Recall the recorded inhibition at 1 µM for `CN(C)[C@@H]1CCN(c2cc(-c3cn(-c4c(F)cccc4F)c(=O)c4c(N)n[nH]c34)nn2C)C1` with JAK3 (Homo sapiens) and state it.
[A] 99

[Q] Recall the recorded inhibition at 1 µM for `CC(C)[C@H](C)n1cc(-c2cc(N3CCN(S(=O)(=O)C4CC4)CC3)n(C)n2)c2[nH]nc(N)c2c1=O` with JAK3 (Homo sapiens) and state it.
[A] 99

[Q] Recall the recorded inhibition at 1 µM for CC(n1cc(-c2cc(N3CCOCC3)n(C)n2)c2[nH]nc(N)c2c1=O)C(C)(C)O (stereo not shown) with JAK3 (Homo sapiens) and state it.
[A] 97
